Reference source for all entries: ChEMBL document CHEMBL1944502

Readings of EC90 for the listed compounds
assay method text: Antiviral activity against Coxsackievirus B3 Nancy infected in african green monkey Vero cells assessed as inhibition of virus-induced cell death after 3 days by spectrophotometry based MTS/PMS assay
Type: functional, Coxsackievirus B3 (strain Nancy)
measurement conditions: Enterovirus B, 72 h
The answer is to be given in µM; state only the numeric part.

A selection of reference data follows.
# input Form field: reported EC90 of Cc1nc(Cl)c2[nH]c(=O)n(-c3cccc(N4CCOC4=O)c3)c2n1
# output 33.5

# input Subsequent entry: CCN(CC)c1cccc(-n2cnc3c(Cl)ncnc32)c1
# output 23

# input Subsequent entry: CCOC(=O)Oc1nc2c(Cl)nc(C)nc2n1-c1cccc(N(C)C)c1
# output 19.9

# input Subsequent entry: Cc1nc(Cl)c2ncn(-c3cccc(N4CCOC4=O)c3)c2n1
# output 15.6

# input Subsequent entry: CCN(CC)c1cccc(-n2cnc3c(Cl)nc(C)nc32)c1
# output 15

***
# input Form field: reported EC90 of Cc1nc(Cl)c2ncn(-c3cccc(N(C)C)c3)c2n1
# output 28

# input Subsequent entry: CN(C)c1cccc(-n2cnc3c(Cl)ncnc32)c1
# output 5

# input Subsequent entry: CC(=O)N(CC1CC1)c1cccc(-n2cnc3c(Cl)nc(C)nc32)c1
# output 52.3

# input Subsequent entry: Cc1nc(Cl)c2nc(OC(=O)Oc3ccccc3)n(-c3cccc(N(C)C)c3)c2n1
# output 14.8

# input Subsequent entry: Cc1nc(Cl)c2c(n1)n(-c1cccc(N(C)C)c1)c(=O)n2C
# output 18.2

----------
Readings of EC90 for the listed compounds
assay method text: Antiviral activity against Coxsackievirus B3 Nancy infected in african green monkey Vero cells assessed as inhibition of virus-induced cell death after 3 days by spectrophotometry based MTS/PMS assay
Format: functional, Coxsackievirus B3 (strain Nancy)
measurement conditions: Enterovirus B, 72 h
A bare number is not enough; add the unit after it.

A selection of reference data follows.
# input Form field: reported EC90 of CC(=O)N(C)c1cccc(-n2cnc3c(Cl)nc(C)nc32)c1
# output 8.3 µM

# input Subsequent entry: CCN(C(C)=O)c1cccc(-n2cnc3c(Cl)nc(C)nc32)c1
# output 10.9 µM

# input Subsequent entry: Cc1nc(Cl)c2[nH]c(=O)n(-c3cccc(N(C)C)c3)c2n1
# output 15 µM

# input Subsequent entry: O=C1OCCN1c1cccc(-n2c(=O)[nH]c3c(Cl)ncnc32)c1
# output 15.3 µM

# input Subsequent entry: CC(=O)Nc1cccc(-n2cnc3c(Cl)ncnc32)c1
# output 24.2 µM

# input Subsequent entry: CN(C)c1cccc(-n2c(=O)[nH]c3c(Cl)ncnc32)c1
# output 26 µM

***
# input Form field: reported EC90 of CC(=O)Nc1cccc(-n2cnc3c(Cl)nc(C)nc32)c1
# output 17.5 µM

# input Subsequent entry: O=C1OCCN1c1cccc(-n2cnc3c(Cl)ncnc32)c1
# output 47.5 µM

----------
assay method text: Cytotoxicity against African green monkey Vero cells after 3 days by spectrophotometry based MTS/PMS assay
Format: cell-based
measurement conditions: chlorocebus sabaeus
property label: CC50 at 72 h

# input Form field: reported CC50 at 72 h of CC(C)S(=O)(=O)n1c(N)nc2ccc(/C(=N/O)c3ccccc3)cc21
# output > 100 µM

# input Subsequent entry: CC(=O)c1cccc(-n2cnc3c(Cl)ncnc32)c1
# output > 100 µM

# input Subsequent entry: O=C1OCCN1c1cccc(-n2cnc3c(Cl)ncnc32)c1
# output > 200 µM

# input Subsequent entry: CC(=O)N(C)c1cccc(-n2cnc3c(Cl)ncnc32)c1
# output > 100 µM
